# Condition Set: in isopropanol, 283.15 K

| Smiles Data | solubility (mole fraction) |
| --- | --- |
| N#Cc1cccc([N+](=O)[O-])c1 | 0.00215 |

----------
# Condition Set: in acetone, 283.15 K
Observed Property: solubility (mole fraction)

| Smiles Data | Value Observed |
| --- | --- |
| N#Cc1cccc([N+](=O)[O-])c1 | 0.0905 |

----------
# Condition Set: in n-butanol, 308.15 K
Observed Property: solubility (mole fraction)

| Smiles Data | Value Observed |
| --- | --- |
| N#Cc1cccc([N+](=O)[O-])c1 | 0.00848 |

----------
# Condition Set: in n-butanol, 283.15 K
Observed Property: solubility (mole fraction)

| Smiles Data | Observed Property | Value Observed |
| --- | --- | --- |
| N#Cc1cccc([N+](=O)[O-])c1 | solubility (mole fraction) | 0.00286 |

----------
# Condition Set: in isopropanol, 288.15 K

| Smiles Data | solubility (mole fraction) |
| --- | --- |
| N#Cc1cccc([N+](=O)[O-])c1 | 0.00274 |

----------
# Condition Set: in n-propanol, 283.15 K

| Smiles Data | solubility (mole fraction) |
| --- | --- |
| N#Cc1cccc([N+](=O)[O-])c1 | 0.00308 |

----------
# Condition Set: in acetone, 318.15 K

| Smiles Data | solubility (mole fraction) |
| --- | --- |
| N#Cc1cccc([N+](=O)[O-])c1 | 0.242 |

----------
# Condition Set: in isopropanol, 293.15 K

| Smiles Data | solubility (mole fraction) |
| --- | --- |
| N#Cc1cccc([N+](=O)[O-])c1 | 0.0035 |

----------
# Condition Set: in ethyl acetate, 283.15 K

| Smiles Data | solubility (mole fraction) |
| --- | --- |
| N#Cc1cccc([N+](=O)[O-])c1 | 0.044 |

----------
# Condition Set: in n-propanol, 318.15 K

| Smiles Data | solubility (mole fraction) |
| --- | --- |
| N#Cc1cccc([N+](=O)[O-])c1 | 0.0135 |

----------
# Condition Set: in methanol, 303.15 K
Observed Property: solubility (mole fraction)

| Smiles Data | Observed Property | Value Observed |
| --- | --- | --- |
| N#Cc1cccc([N+](=O)[O-])c1 | solubility (mole fraction) | 0.0112 |

----------
# Condition Set: in acetone, 293.15 K

| Smiles Data | solubility (mole fraction) |
| --- | --- |
| N#Cc1cccc([N+](=O)[O-])c1 | 0.123 |

----------
# Condition Set: in toluene, 288.15 K

| Smiles Data | solubility (mole fraction) |
| --- | --- |
| N#Cc1cccc([N+](=O)[O-])c1 | 0.0374 |

----------
# Condition Set: in n-propanol, 303.15 K

| Smiles Data | solubility (mole fraction) |
| --- | --- |
| N#Cc1cccc([N+](=O)[O-])c1 | 0.0073 |

----------
# Condition Set: in toluene, 293.15 K

| Smiles Data | solubility (mole fraction) |
| --- | --- |
| N#Cc1cccc([N+](=O)[O-])c1 | 0.0458 |

----------
# Condition Set: in acetonitrile, 293.15 K

| Smiles Data | solubility (mole fraction) |
| --- | --- |
| N#Cc1cccc([N+](=O)[O-])c1 | 0.0814 |

Origin of measurements: BigSolDB 2.1
